assay.system: Sodium-dependent noradrenaline transporter (Homo sapiens)
Sequence (P23975 whole entry): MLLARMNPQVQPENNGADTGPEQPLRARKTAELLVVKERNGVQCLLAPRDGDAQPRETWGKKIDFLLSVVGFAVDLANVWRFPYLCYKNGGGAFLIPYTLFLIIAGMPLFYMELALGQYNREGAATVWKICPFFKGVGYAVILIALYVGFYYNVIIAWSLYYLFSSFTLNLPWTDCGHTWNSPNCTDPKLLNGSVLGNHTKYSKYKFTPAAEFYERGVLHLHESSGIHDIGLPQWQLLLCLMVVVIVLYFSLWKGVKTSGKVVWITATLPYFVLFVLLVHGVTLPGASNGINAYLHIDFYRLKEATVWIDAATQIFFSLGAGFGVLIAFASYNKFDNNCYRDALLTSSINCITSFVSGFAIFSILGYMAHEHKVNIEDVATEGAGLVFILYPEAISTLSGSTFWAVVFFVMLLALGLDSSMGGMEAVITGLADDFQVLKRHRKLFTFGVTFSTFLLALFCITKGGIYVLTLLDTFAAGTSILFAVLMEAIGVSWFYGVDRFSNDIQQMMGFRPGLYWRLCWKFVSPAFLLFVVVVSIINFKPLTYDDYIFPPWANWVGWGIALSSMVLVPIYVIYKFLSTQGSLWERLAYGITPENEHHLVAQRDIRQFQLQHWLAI
assay.remarks: Inhibition of […] reuptake in human NET expressed in HEK293 cells by microbeta liquid scintillation counting method
measured.attribute: IC50 (µM)

These solved cases illustrate the format of a correct answer.
structure.smiles: Fc1ccc(C(OCCN2CCN(c3ccc(Cl)c(Cl)c3)CC2)c2ccc(F)cc2)cc1
assay.system: Sodium-dependent noradrenaline transporter (Homo sapiens)
endpoint.value: 1.32
--
structure.smiles: O=C(NCCCN1CCC(Cc2ccccc2)CC1)C(c1ccc(Cl)cc1)c1ccc(Cl)cc1
assay.system: Sodium-dependent noradrenaline transporter (Homo sapiens)
endpoint.value: 2.02
--
structure.smiles: O=C(NCCN1CCC(Cc2ccccc2)CC1)C(c1ccccc1)c1ccccc1
assay.system: Sodium-dependent noradrenaline transporter (Homo sapiens)
endpoint.value: 1.68
--
structure.smiles: c1ccc(CC2CCN(CCCCn3nnnc3C(c3ccccc3)c3ccccc3)CC2)cc1
assay.system: Sodium-dependent noradrenaline transporter (Homo sapiens)
endpoint.value: 1.53
--
structure.smiles: Fc1ccc(C(OCCN2CCN(c3ccccn3)CC2)c2ccc(F)cc2)cc1
assay.system: Sodium-dependent noradrenaline transporter (Homo sapiens)
endpoint.value: 0.603

(I) C(=C\c1ccccc1)/CN1CCN(CCCCn2nnnc2C(c2ccccc2)c2ccccc2)CC1
(II) O=C(NCCN1CCC(Cc2ccccc2)CC1)C(c1ccc(Cl)cc1)c1ccc(Cl)cc1
query: // select label with min value of measured IC50 from [ I , II ] Which one? Tell me its label.
result: I
(I: 0.318 µM, II: 8.03 µM)

(P) c1ccc(CCN2CCN(CCCn3nnnc3C(c3ccccc3)c3ccccc3)CC2)cc1
(Q) c1ccc(CN2CCN(CCn3nnnc3C(c3ccccc3)c3ccccc3)CC2)cc1
(R) C(=C\c1ccccc1)/CN1CCN(CCCn2nnnc2C(c2ccccc2)c2ccccc2)CC1
(S) O=C(NCCCN1CCC(Cc2ccccc2)CC1)C(c1ccccc1)c1ccccc1
query: Please order the records by their reported IC50, lowest number first. // respond by listing labels in the order requested
result: P, R, S, Q
(P: 0.4 µM, R: 1.33 µM, S: 2.21 µM, Q: 4.22 µM)

---

assay.system: Sodium-dependent serotonin transporter (Homo sapiens)
Sequence (P31645 whole entry): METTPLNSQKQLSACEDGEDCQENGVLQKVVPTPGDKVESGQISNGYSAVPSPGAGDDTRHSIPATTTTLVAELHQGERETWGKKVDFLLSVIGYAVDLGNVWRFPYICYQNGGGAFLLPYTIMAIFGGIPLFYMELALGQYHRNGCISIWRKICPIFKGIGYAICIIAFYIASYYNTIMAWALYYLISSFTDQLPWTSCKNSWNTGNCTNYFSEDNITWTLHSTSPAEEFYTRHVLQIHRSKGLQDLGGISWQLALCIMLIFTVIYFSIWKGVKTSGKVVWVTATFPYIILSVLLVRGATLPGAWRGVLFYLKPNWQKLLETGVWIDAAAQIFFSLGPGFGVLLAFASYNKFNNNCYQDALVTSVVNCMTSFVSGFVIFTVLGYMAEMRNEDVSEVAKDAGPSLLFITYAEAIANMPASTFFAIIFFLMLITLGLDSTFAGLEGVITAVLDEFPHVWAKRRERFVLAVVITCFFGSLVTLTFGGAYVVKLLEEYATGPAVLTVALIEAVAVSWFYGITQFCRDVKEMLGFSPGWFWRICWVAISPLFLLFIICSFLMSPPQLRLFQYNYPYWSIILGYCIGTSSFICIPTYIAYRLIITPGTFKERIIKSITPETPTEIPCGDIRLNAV
assay.remarks: Inhibition of [3H]-5-hydroxytryptamine reuptake in human SERT expressed in HEK293 cells by microbeta liquid scintillation counting method
pIC50: −log10 of the molar value.
measured.attribute: pIC50

structure.smiles: Fc1ccc(C(OCCN2CCN(c3ccc(Cl)cc3Cl)CC2)c2ccc(F)cc2)cc1
pIC50: 5.41
--
structure.smiles: Fc1ccc(C(OCCN2CCN(c3ccccc3)CC2)c2ccc(F)cc2)cc1
pIC50: 5.72
--
structure.smiles: c1ccc(CCN2CCN(CCCCn3nnnc3C(c3ccccc3)c3ccccc3)CC2)cc1
pIC50: 5.10
--
structure.smiles: c1ccc(CCN2CCN(CCn3nnnc3C(c3ccccc3)c3ccccc3)CC2)cc1
pIC50: 5.32
--
structure.smiles: Fc1ccc(C(OCCN2CCN(c3cccc(Cl)c3Cl)CC2)c2ccc(F)cc2)cc1
pIC50: 5.30
--
structure.smiles: c1ccc(CC2CCN(CCn3nnnc3C(c3ccccc3)c3ccccc3)CC2)cc1
pIC50: 5.11
--
structure.smiles: Fc1ccc(C(OCCN2CCN(c3ccc(Cl)cc3)CC2)c2ccc(F)cc2)cc1
pIC50: 5.16

(P) c1ccc(CCCN2CCN(CCCn3nnnc3C(c3ccccc3)c3ccccc3)CC2)cc1
(Q) c1ccc(CC2CCN(CCCCn3nnnc3C(c3ccccc3)c3ccccc3)CC2)cc1
query: Between P and Q , which one shows the larger pIC50 value? Which one? Tell me its label.
result: Q
(Q: 6.26, P: 5.10)

---

assay.system: Sodium-dependent dopamine transporter (Homo sapiens)
assay.remarks: Inhibition of […] reuptake in human DAT expressed in HEK293 cells by microbeta liquid scintillation counting method
measured.attribute: IC50 (nM)

structure.smiles: Fc1ccc(C(OCCN2CCN(c3cccc(Cl)c3Cl)CC2)c2ccc(F)cc2)cc1
unit.of.measurement: nM
IC50: 3000

(1) O=C(NCCCN1CCC(Cc2ccccc2)CC1)C(c1ccccc1)c1ccccc1
(2) c1ccc(CN2CCN(CCn3nnnc3C(c3ccccc3)c3ccccc3)CC2)cc1
query: Between 1 and 2 , which one shows the larger IC50 value? Which one? Tell me its label.
result: 2
(2: 2290 nM, 1: 1070 nM)

(A) c1ccc(CCN2CCN(CCn3nnnc3C(c3ccccc3)c3ccccc3)CC2)cc1
(B) c1ccc(CN2CCN(CCCCn3nnnc3C(c3ccccc3)c3ccccc3)CC2)cc1
query: Between A and B , which one shows the larger IC50 value? Which one? Tell me its label.
result: A

(a) C(=C\c1ccccc1)/CN1CCN(CCCn2nnnc2C(c2ccccc2)c2ccccc2)CC1
(b) O=C(NCCN1CCC(Cc2ccccc2)CC1)C(c1ccccc1)c1ccccc1
query: Between a and b , which one shows the larger IC50 value? Which one? Tell me its label.
result: a

(I) c1ccc(CC2CCN(CCn3nnnc3C(c3ccccc3)c3ccccc3)CC2)cc1
(II) c1ccc(CCCN2CCN(CCCn3nnnc3C(c3ccccc3)c3ccccc3)CC2)cc1
query: // select label with min value of measured IC50 from [ I , II ] Which one? Tell me its label.
result: I
(I: 310 nM, II: 1640 nM)

---

assay.system: Sodium-dependent serotonin transporter (Homo sapiens)
assay.remarks: Inhibition of [3H]-5-hydroxytryptamine reuptake in human SERT expressed in HEK293 cells by microbeta liquid scintillation counting method
Catalogue of IC50 values
Write down the numeric answer in µM and omit the unit.

structure.smiles: Fc1ccc(C(OCCN2CCC(Cc3ccccc3)CC2)c2ccc(F)cc2)cc1
unit.of.measurement: µM
IC50: 1.67

query: Bench note: what IC50 did `C(=C\c1ccccc1)/CN1CCN(CCCCn2nnnc2C(c2ccccc2)c2ccccc2)CC1` show?
result: 6.29

query: Also need `Fc1ccc(C(OCCN2CCN(c3ncccn3)CC2)c2ccc(F)cc2)cc1` , thanks.
result: 1.41

query: Also need `Fc1ccc(C(OCCN2CCN(c3ccccn3)CC2)c2ccc(F)cc2)cc1` , thanks.
result: 0.579

query: Also need `Fc1ccc(C(OCCN2CCN(c3ccc(Cl)c(Cl)c3)CC2)c2ccc(F)cc2)cc1` , thanks.
result: 5.22

---

assay.system: Sodium-dependent noradrenaline transporter (Homo sapiens)
assay.remarks: Inhibition of […] reuptake in human NET expressed in HEK293 cells by microbeta liquid scintillation counting method
Type: cell-based
measured.attribute: IC50 (nM)

structure.smiles: Fc1ccc(C(OCCN2CCN(c3ccccc3Cl)CC2)c2ccc(F)cc2)cc1
unit.of.measurement: nM
IC50: 1260

structure.smiles: c1ccc(CCN2CCN(CCCCn3nnnc3C(c3ccccc3)c3ccccc3)CC2)cc1
unit.of.measurement: nM
IC50: 329

structure.smiles: c1ccc(CCCN2CCN(CCn3nnnc3C(c3ccccc3)c3ccccc3)CC2)cc1
unit.of.measurement: nM
IC50: 1470

structure.smiles: c1ccc(CCCN2CCN(CCCn3nnnc3C(c3ccccc3)c3ccccc3)CC2)cc1
unit.of.measurement: nM
IC50: 569

structure.smiles: Fc1ccc(C(OCCN2CCN(c3ncccn3)CC2)c2ccc(F)cc2)cc1
unit.of.measurement: nM
IC50: 1620

structure.smiles: Fc1ccc(C(OCCN2CCN(c3cccc(Cl)c3Cl)CC2)c2ccc(F)cc2)cc1
unit.of.measurement: nM
IC50: 3000

(1) C(=C\c1ccccc1)/CN1CCN(CCn2nnnc2C(c2ccccc2)c2ccccc2)CC1
(2) c1ccc(CN2CCN(CCCn3nnnc3C(c3ccccc3)c3ccccc3)CC2)cc1
(3) c1ccc(CN2CCN(CCCCn3nnnc3C(c3ccccc3)c3ccccc3)CC2)cc1
query: Please order the records by their reported IC50, lowest number first. // respond by listing labels in the order requested
result: 3, 2, 1
(3: 323 nM, 2: 521 nM, 1: 1760 nM)

---

assay.system: Sodium-dependent dopamine transporter (Homo sapiens, UniProt Q01959)
Sequence (Q01959 whole entry): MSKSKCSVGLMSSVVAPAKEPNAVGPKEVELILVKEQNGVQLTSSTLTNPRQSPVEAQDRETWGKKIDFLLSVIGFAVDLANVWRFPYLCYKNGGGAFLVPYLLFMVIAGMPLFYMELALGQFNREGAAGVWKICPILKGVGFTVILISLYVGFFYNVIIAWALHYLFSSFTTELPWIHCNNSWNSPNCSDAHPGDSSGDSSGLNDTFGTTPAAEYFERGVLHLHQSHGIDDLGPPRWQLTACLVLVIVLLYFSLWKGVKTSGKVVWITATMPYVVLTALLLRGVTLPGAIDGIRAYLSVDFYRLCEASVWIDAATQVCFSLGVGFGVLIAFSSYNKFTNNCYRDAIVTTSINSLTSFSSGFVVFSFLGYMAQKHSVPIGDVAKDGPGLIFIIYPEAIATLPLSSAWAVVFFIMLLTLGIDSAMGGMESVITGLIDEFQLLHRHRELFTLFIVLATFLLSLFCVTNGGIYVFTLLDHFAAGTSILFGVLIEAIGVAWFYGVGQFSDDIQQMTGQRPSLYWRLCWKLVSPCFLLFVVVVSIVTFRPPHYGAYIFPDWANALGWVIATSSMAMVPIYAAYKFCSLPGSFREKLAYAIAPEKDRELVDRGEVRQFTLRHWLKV
assay.remarks: Inhibition of […] reuptake in human DAT expressed in HEK293 cells by microbeta liquid scintillation counting method
pIC50: −log10 of the molar value.
measured.attribute: pIC50

These solved cases illustrate the format of a correct answer.
structure.smiles: Fc1ccc(C(OCCN2CCC(Cc3ccccc3)CC2)c2ccc(F)cc2)cc1
measured.attribute: pIC50
endpoint.value: 5.17
//
structure.smiles: O=C(NCCCN1CCC(Cc2ccccc2)CC1)C(c1ccc(Cl)cc1)c1ccc(Cl)cc1
measured.attribute: pIC50
endpoint.value: 5.87
//
structure.smiles: O=C(NCCN1CCC(Cc2ccccc2)CC1)C(c1ccc(Cl)cc1)c1ccc(Cl)cc1
measured.attribute: pIC50
endpoint.value: 6.20
//
structure.smiles: Fc1ccc(C(OCCN2CCN(c3ncccn3)CC2)c2ccc(F)cc2)cc1
measured.attribute: pIC50
endpoint.value: 5.77
//
structure.smiles: Fc1ccc(C(OCCN2CCN(c3ccccc3)CC2)c2ccc(F)cc2)cc1
measured.attribute: pIC50
endpoint.value: 5.00

(A) c1ccc(CC2CCN(CCCn3nnnc3C(c3ccccc3)c3ccccc3)CC2)cc1
(B) c1ccc(CCN2CCN(CCCn3nnnc3C(c3ccccc3)c3ccccc3)CC2)cc1
query: Between A and B , which one shows the larger pIC50 value? Which one? Tell me its label.
result: A
